This listing pairs molecules with measured IC50.
target: UniProtKB P42336; experiment: Fluorescence polarization assay for PI3K; assay type: biochemical; details: PI3Kα; read-out: PI3Kα IC50;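 further: PI3K kinase reaction on PIP2 with ATP, 30-60 min, product sensed by GST-GRP with red probe in fluorescence polarization (mP), controls without enzyme and at zero time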
Sequence (P42336 whole entry): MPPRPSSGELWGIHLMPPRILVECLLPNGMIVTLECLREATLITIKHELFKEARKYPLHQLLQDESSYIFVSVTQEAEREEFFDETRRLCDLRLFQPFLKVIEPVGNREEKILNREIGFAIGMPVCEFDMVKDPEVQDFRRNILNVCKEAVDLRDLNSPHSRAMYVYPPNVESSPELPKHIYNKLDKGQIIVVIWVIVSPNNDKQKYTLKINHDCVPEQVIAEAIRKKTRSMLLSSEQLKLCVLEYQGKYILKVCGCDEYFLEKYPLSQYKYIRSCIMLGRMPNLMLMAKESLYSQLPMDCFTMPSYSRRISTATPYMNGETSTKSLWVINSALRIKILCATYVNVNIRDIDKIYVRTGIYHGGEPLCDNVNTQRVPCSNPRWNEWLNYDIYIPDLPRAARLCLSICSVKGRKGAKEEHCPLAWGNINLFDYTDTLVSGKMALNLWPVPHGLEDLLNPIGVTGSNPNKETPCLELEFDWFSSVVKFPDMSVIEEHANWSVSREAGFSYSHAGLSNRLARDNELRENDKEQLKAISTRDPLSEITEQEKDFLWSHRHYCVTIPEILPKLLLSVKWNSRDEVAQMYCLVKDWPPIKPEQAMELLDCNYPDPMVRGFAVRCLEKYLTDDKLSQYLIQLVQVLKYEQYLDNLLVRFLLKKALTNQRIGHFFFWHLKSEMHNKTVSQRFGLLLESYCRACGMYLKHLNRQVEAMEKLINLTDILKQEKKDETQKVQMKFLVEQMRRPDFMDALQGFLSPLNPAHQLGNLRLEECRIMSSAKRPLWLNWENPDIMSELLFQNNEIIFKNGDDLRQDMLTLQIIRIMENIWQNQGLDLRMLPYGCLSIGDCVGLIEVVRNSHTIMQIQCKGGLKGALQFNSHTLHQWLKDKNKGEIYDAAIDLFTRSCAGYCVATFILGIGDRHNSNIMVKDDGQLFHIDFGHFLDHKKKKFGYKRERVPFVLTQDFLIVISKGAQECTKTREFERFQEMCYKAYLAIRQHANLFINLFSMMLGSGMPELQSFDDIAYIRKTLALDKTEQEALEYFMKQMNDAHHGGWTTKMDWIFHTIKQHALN
Sequence (P27986 whole entry partner): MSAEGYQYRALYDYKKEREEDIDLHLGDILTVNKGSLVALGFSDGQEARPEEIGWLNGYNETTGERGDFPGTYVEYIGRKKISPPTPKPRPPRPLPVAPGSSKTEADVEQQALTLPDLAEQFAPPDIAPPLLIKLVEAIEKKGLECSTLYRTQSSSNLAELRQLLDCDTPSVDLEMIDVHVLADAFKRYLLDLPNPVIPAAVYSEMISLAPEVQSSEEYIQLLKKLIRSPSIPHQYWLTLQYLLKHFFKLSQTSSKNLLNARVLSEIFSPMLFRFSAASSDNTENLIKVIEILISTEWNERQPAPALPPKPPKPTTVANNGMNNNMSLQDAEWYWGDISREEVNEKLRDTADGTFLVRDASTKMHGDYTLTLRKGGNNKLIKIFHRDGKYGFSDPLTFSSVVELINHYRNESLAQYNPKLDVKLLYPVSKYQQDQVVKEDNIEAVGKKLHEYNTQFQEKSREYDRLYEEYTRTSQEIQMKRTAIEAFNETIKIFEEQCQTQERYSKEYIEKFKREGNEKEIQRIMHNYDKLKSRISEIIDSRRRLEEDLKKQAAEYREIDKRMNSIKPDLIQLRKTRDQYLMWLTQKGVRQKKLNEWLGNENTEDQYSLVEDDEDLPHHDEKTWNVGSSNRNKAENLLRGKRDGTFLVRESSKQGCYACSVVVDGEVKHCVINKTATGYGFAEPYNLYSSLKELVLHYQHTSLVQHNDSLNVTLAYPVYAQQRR
The response must be a number in nM with no trailing unit.

Requested read-out: IC50. Entry: O=C(NCC(F)(F)F)Nc1ccc(-c2nc(N3CCOCC3)c3cnn(C4CCN(Cc5ccccc5)CC4)c3n2)cc1 [Example 289]
590

Would you mind telling me what IC50 value was observed for CNC(=O)Nc1ccc(-c2nc(N3CCOCC3)c3cnn(C4CCN(Cc5cccnc5Cl)CC4)c3n2)cc1 [Compound 635] ?
90

What value of IC50 has been reported for the following molecule? NCC(=O)Nc1ccc(-c2nc(N3CCOCC3)c3cn[nH]c3n2)cc1 [Compound 528]
128

So what's the measured IC50 for this one? COC(=O)N1CCC(n2ncc3c(N4CCOCC4)nc(-c4ccc(NC(=O)Nc5cccnc5F)cc4)nc32)CC1
266
